The following binders are shown together with reported cAMP Emax values.
# Target Or System: T1, human glucose-dependent insulinotropic polypeptide (GIP) receptor (human, UniProt P48546 22-466)
# T1 sequence (looked up): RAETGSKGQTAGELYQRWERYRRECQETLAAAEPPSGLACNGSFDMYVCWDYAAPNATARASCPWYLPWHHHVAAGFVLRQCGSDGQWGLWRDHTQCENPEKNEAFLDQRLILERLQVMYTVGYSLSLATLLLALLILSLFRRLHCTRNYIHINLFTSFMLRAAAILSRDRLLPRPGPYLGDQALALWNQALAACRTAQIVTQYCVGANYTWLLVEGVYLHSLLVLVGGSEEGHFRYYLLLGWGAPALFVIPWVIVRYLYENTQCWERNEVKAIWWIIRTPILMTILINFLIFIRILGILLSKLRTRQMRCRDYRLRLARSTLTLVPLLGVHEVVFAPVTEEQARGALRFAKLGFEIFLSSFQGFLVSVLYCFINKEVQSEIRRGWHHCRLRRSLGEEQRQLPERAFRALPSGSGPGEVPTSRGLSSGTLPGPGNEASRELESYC
# Measurement Notes: cell-based or functional assay
*1 amine or outer side, *2 acyl side, *3 side chain or, on linkers, in order; H or OH if unused. Where no end group is shown, it is not given here. Side-chain parts run from the residue outwards. [ ]: non-standard residue; d: D form. The star is where a group is joined. Butanoyl(4-(4-tBuPh)) = CC(C)(C)c1ccc(CCCC(=O)*)cc1; αMePhe(2-F) = C[C@](N)(Cc1ccccc1F)C(=O)O; γGlu = O=C(O)[C@H](CCC(=O)[*:2])N[*:1]; C14 diacid = O=C(O)CCCCCCCCCCCCC(=O)*; εLys = N[C@@H](CCCCN[*:1])C(=O)[*:2]; αMeY = C[C@](N)(Cc1ccc(O)cc1)C(=O)O; αMeL = CC(C)C[C@](C)(N)C(=O)O; Orn = NCCC[C@H](N)C(=O)O; AEEA = NCCOCCOCC(=O)O; Aib = CC(C)(N)C(=O)O
Answer in %, number only, no unit symbol.

Y[Aib]EGT[αMePhe(2-F)]TSDV[Aib]I[αMeL]LD[Orn]K([AEEA-AEEA-γGlu-Butanoyl(4-(4-tBuPh))])AQ[Aib]EFI[dE][αMeY]LIEGGK([AEEA-AEEA-γGlu-Butanoyl(4-(4-tBuPh))])SSGAPPPS-NH2 [Example 177]
113

Now consider the entry below.
query: Look at this binder and give its reported cAMP Emax. Y[Aib]EGT[αMePhe(2-F)]TSDV[Aib]I[αMeL]LD[Orn]K([εLys-γGlu-C14 diacid])AQ[Aib]EFIK([εLys-γGlu-C14 diacid])[αMeY]LIEGGPSSGAPPPS-NH2 [Example 167]
result: 99.5
